This collection of values is drawn from patent US20180258158A1.

# System: T1, human serum albumin (HSA), full length (human, UniProt P02768 25-609)
# T1 construct: mature; Immobilized on CM5 chip (SPR) or coated on plates (ELISA)
# T1 sequence (P02768 25-609): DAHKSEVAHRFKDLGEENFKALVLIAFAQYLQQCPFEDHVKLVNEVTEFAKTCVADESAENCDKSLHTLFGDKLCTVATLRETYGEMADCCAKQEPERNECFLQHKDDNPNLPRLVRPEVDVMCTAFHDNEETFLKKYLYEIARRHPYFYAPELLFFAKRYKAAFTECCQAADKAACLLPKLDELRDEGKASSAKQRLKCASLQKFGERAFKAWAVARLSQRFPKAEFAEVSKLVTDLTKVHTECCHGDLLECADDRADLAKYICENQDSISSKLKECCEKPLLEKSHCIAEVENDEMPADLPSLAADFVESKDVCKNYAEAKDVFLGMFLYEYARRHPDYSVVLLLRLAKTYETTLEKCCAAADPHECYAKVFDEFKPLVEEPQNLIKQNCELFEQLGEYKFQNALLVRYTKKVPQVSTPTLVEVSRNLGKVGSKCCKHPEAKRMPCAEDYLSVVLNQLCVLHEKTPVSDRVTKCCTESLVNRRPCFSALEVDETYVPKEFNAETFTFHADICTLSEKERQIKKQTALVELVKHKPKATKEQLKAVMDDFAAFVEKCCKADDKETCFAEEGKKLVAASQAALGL
# Experiment description: direct binding ELISA, coated HSA, anti-His-HRP
# Set-up: unit not given here
Endpoint name: HSA DB ELISA (OD450) Ymax obs

Consider the worked cases shown below.
Binder	HSA DB ELISA (OD450) Ymax obs
ADX_6727_B11 (Q33D/K85S) (designed binder, Full His6-tagged entry) MGVSDVPRDLEVVAATPTSLLISWDAPAVTVRYYRITYGREVDKYSDLGPLYIYQEFTVPGSKSTATISGLKPGVDYTITVYAVTGSGESPASSSPISINYRTEIDKPSQHHHHHH	12
ADX_6727_H02 (I43S) (designed binder, Full His6-tagged entry) MGVSDVPRDLEVVAATPTSLLISWDAPAVTVRYYRITYGREVQKYSDLGPLYSYQEFTVPGSKSTATISGLKPGVDYTITVYAVTGSGESPASSKPISINYRTEIDKPSQHHHHHH	37
ADX_6727_F03 (I43Y as printed in Table 4; I43A in Table 7) (designed binder, Full His6-tagged entry) MGVSDVPRDLEVVAATPTSLLISWDAPAVTVRYYRITYGREVQKYSDLGPLYAYQEFTVPGSKSTATISGLKPGVDYTITVYAVTGSGESPASSKPISINYRTEIDKPSQHHHHHH	89

P: ADX_6727_G05 (I43S/K85A) (designed binder, Full His6-tagged entry) MGVSDVPRDLEVVAATPTSLLISWDAPAVTVRYYRITYGREVQKYSDLGPLYSYQEFTVPGSKSTATISGLKPGVDYTITVYAVTGSGESPASSAPISINYRTEIDKPSQHHHHHH
Q: ADX_6727_B04 (Y35S/K85S) (designed binder, Full His6-tagged entry) MGVSDVPRDLEVVAATPTSLLISWDAPAVTVRYYRITYGREVQKSSDLGPLYIYQEFTVPGSKSTATISGLKPGVDYTITVYAVTGSGESPASSSPISINYRTEIDKPSQHHHHHH
R: ADX_6727_F04 (Y44A/K85A) (designed binder, Full His6-tagged entry) MGVSDVPRDLEVVAATPTSLLISWDAPAVTVRYYRITYGREVQKYSDLGPLYIAQEFTVPGSKSTATISGLKPGVDYTITVYAVTGSGESPASSAPISINYRTEIDKPSQHHHHHH
S: ADX_6727_D10 (Q33D/K85T) (designed binder, Full His6-tagged entry) MGVSDVPRDLEVVAATPTSLLISWDAPAVTVRYYRITYGREVDKYSDLGPLYIYQEFTVPGSKSTATISGLKPGVDYTITVYAVTGSGESPASSTPISINYRTEIDKPSQHHHHHH
Challenge: List these items ordered by HSA DB ELISA (OD450) Ymax obs, big to small. # output: labels, in the requested order
Response given: Q, R, P, S
(Q: 99, R: 56, P: 38, S: 19)
